- System: HCT-116 colon
- assayInfo: NCI tumour cell line growth inhibition, 48 h
Give GI50 for every item shown.

Observed GI50 on HCT-116 colon, entry CCCCCCCCCCCCCCCCCC1=NCCN1CS(=O)(=O)O , equals 10.4 µM

Observed GI50 on HCT-116 colon, entry COc1cc2c(cc1OCCOS(C)(=O)=O)N=C[C@@H]1CCCN1C2=O , equals 18.5 µM

Observed GI50 on HCT-116 colon, entry COc1ccc(-c2ccc(/C=N/n3c(COc4ccccc4Cl)nn(CN4CCN(C)CC4)c3=S)o2)c([N+](=O)[O-])c1 , equals 16.1 µM

* * *

Give TGI for every item shown.
- Tested on: SNB-78 CNS
- assayInfo: NCI tumour cell line growth inhibition, 48 h

compound N#CC(C(=O)/C(=N\Nc1nc(=S)[nH]n1N)C(C#N)c1ccc(Cl)cc1)c1ccc(Cl)cc1 (stereo unspecified) , TGI observed: > 100 µM

compound NC(=O)N1N=C2c3ccccc3CC[C@@H]2C1c1ccccc1 (stereo partly specified) , TGI observed: > 100 µM

compound CCCCc1c2c(nc3c1CCCC3O)/C(=C/c1ccccc1)CCC2 (stereo unspecified) , TGI observed: > 100 µM

compound COc1ccc(C2C3C(=O)C=CC(=O)C3[C@@H]2C)cc1OC (stereo partly specified) , TGI observed: > 100 µM

compound Cc1cc2c(=O)n(-c3ccc(F)cc3)c(C)nc2c(C(=O)O)c1C , TGI observed: > 100 µM

compound CC1=CC(=O)CCC2(C)C1CC[C@@H]2OC=O (stereo partly specified) , TGI observed: > 100 µM

compound CCn1c2c(n(CC)c1=S)-c1c(n(CC)c(=S)n1CC)SSSS2 , TGI observed: 28.1 µM

compound COC1=CC(=O)[C@H]2[C@H](C)C(c3ccccc3)[C@@]2(C)C1=O (stereo partly specified) , TGI observed: > 100 µM

compound COc1ccc(/C=C2\CCCCC2=O)cc1 , TGI observed: > 100 µM

compound CN(C)c1ccc(/C=C(/NC(=O)c2ccccc2)c2nc3ccc(Cl)cc3[nH]2)cc1 , TGI observed: > 100 µM

compound COc1ccc2oc3c4c2c1CCC4CCC3=O (stereo unspecified) , TGI observed: > 100 µM

compound N/N=C1\C(=O)N(C2CCCCC2)C(=O)C1C(=O)NC1CCCCC1 (stereo unspecified) , TGI observed: > 100 µM

compound COc1ccc(C2=NNC(=O)OC2c2ccccc2)cc1 (stereo unspecified) , TGI observed: > 100 µM

compound CC(=O)OC1CC(n2cc(F)c(=O)[nH]c2=O)OC1CO (stereo unspecified) , TGI observed: > 100 µM

compound Cc1ccc(NC(=O)c2cccc([N+](=O)[O-])c2O)c([N+](=O)[O-])c1 , TGI observed: > 100 µM

compound COc1nc(SC)nc2c1cnn2C1OC(C(O)CO)C(OC)C1O (stereo unspecified) , TGI observed: > 100 µM

compound CC(C)(C)NN=C1C(C)(C)C(=NNC(C)(C)C)C1(C)C , TGI observed: > 100 µM

compound COc1cc2c(c(C)c1O)[C@H]1COc3ccccc3[C@H]1O2 , TGI observed: 80.7 µM

compound CCCN(CCCC(NC(C)=O)C(=O)NCc1ccccc1)C(=O)NC (stereo unspecified) , TGI observed: > 100 µM

compound Cc1cc(N(CCC#N)S(C)(=O)=O)ccc1C=O , TGI observed: > 100 µM

compound COC(OC)c1cccc2c1C(=O)CCC1(O)c3ccccc3C1C2 (stereo unspecified) , TGI observed: > 100 µM
